protocol: serotonin-gated TRPC4 signal block – cell-based, second counter screen, HEK293 TRPC4/5HT1a, Fluo-4, counter-screen for TRPC4 inhibitor project, confirmation (AID 434978);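 for outcome: serotonin given first at submaximal then at maximal dose after compound preincubation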
run conditions: Fluo-4 calcium flux, at 10 µM, serotonin added to trigger calcium flux
Activity calls are given as the source filed them.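 Rule for the calls: active = primary screen active whose calcium signal fell more than 3 SD beyond the full-serotonin control mean in both duplicate plates; inactive = the rest.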
Use one of these outcomes when replying: TRUE for active, FALSE for inactive

Which outcome was entered for the compound "Cc1cc(OCCN2CCCC2)ccc1[N+](=O)[O-]" in this test? FALSE

Which outcome was entered for the compound "Cc1onc(-c2ccccc2)c1C(=O)NNC(=S)NC(=O)c1ccc2c(c1)OCO2" in this test? FALSE

Which outcome was entered for the compound CCC(C)NCCOCCOc1ccccc1-c1ccccc1 (stereo unspecified) in this test? TRUE

Which outcome was entered for the compound "CCCC(=O)Nc1c(-c2ccccc2)c(=O)c(C)nn1-c1ccc(Cl)cc1" in this test? FALSE

Which outcome was entered for the compound CCOc1c(Cl)cc(CNCC(O)c2ccccc2)cc1OC (stereo unspecified) in this test? FALSE

Which outcome was entered for the compound "Cc1ccc(-c2nnc(N3CCC(C)CC3)c3ccccc23)cc1C" in this test? FALSE

Which outcome was entered for the compound "CCn1c2ccccc2c2cc(/C=N/NC(=O)c3cc(O)cc(O)c3)ccc21" in this test? TRUE

Which outcome was entered for the compound CCCNC(=O)c1nnsc1S(=O)c1ccc(Cl)cc1 (stereo unspecified) in this test? TRUE

Which outcome was entered for the compound "CC1CCN(CCOCCOc2ccccc2-c2ccccc2)CC1" in this test? TRUE

Which outcome was entered for the compound c1ccc(C(c2nnnn2C2CCCC2)N2CCN(c3ccccc3)CC2)cc1 (stereo unspecified) in this test? FALSE

Which outcome was entered for the compound "COc1ccccc1C(=O)Nc1ccc2c(c1)CCCN2C(=O)c1cccs1" in this test? FALSE
